The values you see were collected from PubChem BioAssay.

Target: Voltage-gated potassium channel subunit beta-2 (Rattus norvegicus) (UniProt P62483)
Sequence (P62483 whole entry, looked up): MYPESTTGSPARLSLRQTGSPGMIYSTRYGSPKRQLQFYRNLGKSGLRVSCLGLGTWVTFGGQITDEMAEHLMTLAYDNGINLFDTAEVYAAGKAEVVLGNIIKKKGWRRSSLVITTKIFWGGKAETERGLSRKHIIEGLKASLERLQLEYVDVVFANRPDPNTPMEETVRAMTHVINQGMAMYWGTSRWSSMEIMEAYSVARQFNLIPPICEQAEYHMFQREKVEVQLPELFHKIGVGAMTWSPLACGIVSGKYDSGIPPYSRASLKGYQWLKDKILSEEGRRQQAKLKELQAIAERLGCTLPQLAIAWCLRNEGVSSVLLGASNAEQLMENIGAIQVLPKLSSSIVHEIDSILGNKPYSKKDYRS
Test: inhibitors of rat Kvbeta2 reductase activity – biochemical, NADPH fluorescence, primary screen (AID 622);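 also: slope of raw intensity against log time taken from 70 to 1610 s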
Settings: recombinant KvBeta, 4-cyanobenzaldehyde reduction, at 10 µM, stronger effect = higher value
Threshold rule: fluorescence slope greater than or equal to -0.5 is met; below that, not met.

Some solved cases for reference:
>  <compound>
Cn1c(=O)c2c(nc(SCC(=O)N3CCCc4ccccc43)n2C)n(C)c1=O

>  <label>
met

$$$$
>  <compound>
CCOCCn1c(CN2CCC(Cc3ccccc3)CC2)nc2c1c(=O)n(C)c(=O)n2C

>  <label>
met

$$$$
>  <compound>
O=C1c2ccccc2C(=O)N1CCCn1nnc(-c2ccc(N3CCOCC3)cc2)n1

>  <label>
not met

$$$$
>  <compound>
O=c1[nH]c2cc3c(cc2cc1C(c1nnnn1C1CCCCC1)N1CCSCC1)OCCO3 (stereo unspecified)

>  <label>
met

$$$$

Okay, now this compound:
In: Identify whether the reported fluorescence slope of the following compound is -0.5 or greater: COc1cccc(-n2nnnc2SCC(=O)NCc2ccco2)c1
Out: not met

* * *

Reported nuclei count values for a set of molecules
Assay: endothelial E-selectin expression blockers – imaging, HUVEC, immunofluorescence, MLSMR starter and 10KST1 sets, primary screen (AID 487);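 also: 100% = median nuclei count of all wells on the same plate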
Details: HUVEC TNFalpha-induced E-selectin immunofluorescence imaging, at 2 µM; measured here: cell number, toxicity
Express it in %; write the number only.

Record excerpt, results attached:
>  <molecule>
O=C(c1ccccc1)c1ccc(N2CCNCC2)cc1

>  <parameter>
nuclei count

>  <numeric-readout>
102

$$$$
>  <molecule>
Nn1cc(-c2ccccc2)nc1SCC(=O)N1CCN(S(=O)(=O)c2ccccc2)CC1

>  <parameter>
nuclei count

>  <numeric-readout>
106

$$$$
>  <molecule>
Cc1[nH]nc(-c2ccc(O)c(C)c2O)c1-c1cnn(-c2ccccc2)c1

>  <parameter>
nuclei count

>  <numeric-readout>
97.8

$$$$
>  <molecule>
CCOC(=O)N1CCC(NC(=O)Cc2ccc(-n3c(=O)[nH]c4ccccc4c3=O)cc2)CC1

>  <parameter>
nuclei count

>  <numeric-readout>
115

$$$$
>  <molecule>
COc1ccccc1OCCNC(=O)c1cccs1

>  <parameter>
nuclei count

>  <numeric-readout>
99

$$$$
>  <molecule>
COc1ccccc1CC(=O)Nc1ccc(OC)c(OC)c1

>  <parameter>
nuclei count

>  <numeric-readout>
118

$$$$

In: Can you look up the measured nuclei count of COC(=O)Cc1[nH]nc2c1C(C1C=CCCC1)C(C#N)=C(N)O2 (stereo not given) for me?
Out: 117

In: Given the entry CCCCSc1nc(CCC)cc(=O)[nH]1 , report its measured nuclei count.
Out: 116

In: // lookup nuclei count for O=C1c2ccccc2C(=O)N1CCCn1nnc(-c2ccc(N3CCOCC3)cc2)n1
Out: 109

In: What value of nuclei count has been recorded for this entry: C=CS(=O)(=O)c1ccc(Oc2ccc(S(=O)(=O)C=C)cc2)cc1
Out: 121

In: Using the record for CN(C)c1cccc(NC(=O)CCc2ccccc2)c1 , report its nuclei count.
Out: 95.9

In: Which nuclei count is reported for this molecule? COc1ccc(-c2noc(-c3ccccc3C(=O)Nc3cccnc3)n2)cc1
Out: 95.3

In: Quick check: nuclei count of Cc1ccc(S(=O)(=O)NCC(c2cccnc2)N(C)C)cc1 (stereo not given) ?
Out: 127

In: Consider the molecule shown here: COC(=O)c1ccc2c(=O)n(NC(C)=O)c(=S)[nH]c2c1 What is its recorded nuclei count?
Out: 114

In: Which nuclei count value is on record for CC(=O)c1ccc(NC(=O)c2cc(CC(C)C)on2)cc1 ?
Out: 104

In: Entry COC(=O)c1cccc(NC(=O)C2COc3ccccc3O2)c1C (stereo not given) : reported nuclei count = ?
Out: 96.5
